Molecular target: T1, monomeric human PRLR (hPRLR.mmh; SEQ ID NO:401) (Homo sapiens, UniProt P16471)
T1 construct: soluble monomeric (hPRLR.mmh); mmh (myc-myc-hexahistidine) (C)
T1 sequence (P16471 with tags, fused parts or gaps): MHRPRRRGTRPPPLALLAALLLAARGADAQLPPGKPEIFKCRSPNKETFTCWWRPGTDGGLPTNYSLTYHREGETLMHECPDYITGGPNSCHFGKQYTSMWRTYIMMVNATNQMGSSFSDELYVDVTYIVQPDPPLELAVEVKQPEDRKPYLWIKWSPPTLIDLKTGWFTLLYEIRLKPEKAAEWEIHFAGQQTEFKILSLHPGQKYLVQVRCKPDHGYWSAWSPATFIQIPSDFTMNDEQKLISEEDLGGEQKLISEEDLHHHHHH
Assay: Surface plasmon resonance (Biacore T200), antibody-capture format
Format: binding
Settings: 37° C., analyte hPRLR.mmh
assay_readout: kd (s⁻¹)
Write the number in s⁻¹ without appending the unit.

1. H1H6801P: fully human anti-PRLR antibody, human IgG1 Fc; HCVR/LCVR SEQ ID NOs 210/218 (antibody, V domains shown) VH: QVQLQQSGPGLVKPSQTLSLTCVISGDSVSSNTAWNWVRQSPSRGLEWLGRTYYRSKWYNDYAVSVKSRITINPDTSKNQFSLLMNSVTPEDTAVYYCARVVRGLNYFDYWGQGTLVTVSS VL: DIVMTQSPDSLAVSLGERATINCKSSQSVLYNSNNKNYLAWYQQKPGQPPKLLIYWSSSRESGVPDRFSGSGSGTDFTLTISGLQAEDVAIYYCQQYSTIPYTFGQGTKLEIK    0.00441

Q: I would be grateful if you could share the reported kd for H1H6959N2: anti-PRLR antibody, human IgG1 Fc form of H2M6959N2 of Table 1; HCVR/LCVR SEQ ID NOs 306/314 (antibody, V domains shown) VH: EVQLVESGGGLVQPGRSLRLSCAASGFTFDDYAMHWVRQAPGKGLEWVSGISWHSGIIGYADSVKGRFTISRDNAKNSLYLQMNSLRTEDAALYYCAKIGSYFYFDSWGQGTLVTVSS VL: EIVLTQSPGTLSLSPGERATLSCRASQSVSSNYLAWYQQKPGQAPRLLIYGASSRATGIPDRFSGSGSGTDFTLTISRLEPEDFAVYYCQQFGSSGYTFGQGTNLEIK .
A: 0.0277

Q: I would be grateful if you could share the reported kd for H1H6960N: anti-PRLR antibody, human IgG1 Fc form of H2M6960N of Table 1; HCVR/LCVR SEQ ID NOs 322/330 (antibody, V domains shown, human IgG1 Fc) VH: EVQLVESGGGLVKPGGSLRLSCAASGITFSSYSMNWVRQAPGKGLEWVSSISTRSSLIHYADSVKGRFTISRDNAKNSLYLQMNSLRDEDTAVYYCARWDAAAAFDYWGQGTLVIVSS VL: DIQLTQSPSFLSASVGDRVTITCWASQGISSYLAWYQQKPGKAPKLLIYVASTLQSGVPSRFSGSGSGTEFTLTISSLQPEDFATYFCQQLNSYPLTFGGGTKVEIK .
A: 0.00198

Q: I would be grateful if you could share the reported kd for H1H6804P: fully human anti-PRLR antibody, human IgG1 Fc; HCVR/LCVR SEQ ID NOs 242/250 (antibody, V domains shown) VH: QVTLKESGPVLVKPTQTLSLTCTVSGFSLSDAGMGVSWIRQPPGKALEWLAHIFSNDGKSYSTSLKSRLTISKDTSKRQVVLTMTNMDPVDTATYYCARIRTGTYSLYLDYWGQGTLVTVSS VL: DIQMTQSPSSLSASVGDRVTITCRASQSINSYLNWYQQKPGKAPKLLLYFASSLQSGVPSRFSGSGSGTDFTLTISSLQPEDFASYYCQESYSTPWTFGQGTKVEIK .
A: 0.00385

Q: I would be grateful if you could share the reported kd for H1H6785P: fully human anti-PRLR antibody, human IgG1 Fc; HCVR/LCVR SEQ ID NOs 98/106 (antibody, V domains shown) VH: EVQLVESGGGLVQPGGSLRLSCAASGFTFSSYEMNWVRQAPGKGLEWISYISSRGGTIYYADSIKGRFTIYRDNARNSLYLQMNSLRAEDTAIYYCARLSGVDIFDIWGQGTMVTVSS VL: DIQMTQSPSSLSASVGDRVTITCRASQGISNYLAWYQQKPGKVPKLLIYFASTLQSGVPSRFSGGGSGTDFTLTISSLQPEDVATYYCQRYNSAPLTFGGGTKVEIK .
A: 0.000484
